Just for reference, PubChem BioAssay AID1918948 is where these values come from.

- System: K-562 leukemia growth, % test/control
- assay_procedure: Anticancer human tumor K-562 cell line growth inhibition; active means viability on the fitted dose curve at most 10% of control; inactive means the rest;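 further: spheroids exposed to compounds for 7 days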
- particulars: second compound 1 µM; first compound 0.316 µM; spheroids with HUVEC and MSC
The reply should name one outcome from TRUE for active, FALSE for inactive

Illustrative cases are given below, each with its answer.
compound	class_label
CC(C)c1c(-c2ccccc2)nc2c(C#N)c[nH]n2c1=O + NC1CCC(NC2CC2c2ccccc2)CC1	FALSE
COc1ccc([C@@H](O)c2cc(-c3ncnc4cc(N5CCOCC5)ccc34)c(F)cc2Cl)nn1 + NC1CCC(NC2CC2c2ccccc2)CC1	FALSE
O=C(C=Cn1cnc(-c2cc(C(F)(F)F)cc(C(F)(F)F)c2)n1)NNc1cnccn1 + NC1CC1c1ccc(-c2cccc(O)c2)cc1	TRUE

Would you kindly look at the next entry?
Test call, this compound: CC1(C)CCC(CN2CCN(c3ccc(C(=O)NS(=O)(=O)c4ccc(NCC5CCOCC5)c([N+](=O)[O-])c4)c(Oc4cnc5[nH]ccc5c4)c3)CC2)=C(c2ccc(Cl)cc2)C1 + NC1CC1c1ccc(-c2cccc(O)c2)cc1
FALSE
